Cited source for all entries: the nanobody polyreactivity screen of Harvey et al. (2022)

- measurement_notes: yeast display, Sf9 membrane polyspecificity reagent, FACS + sequencing; frameworks hold sequencing errors
measured_endpoint: polyreactivity (PSR sort gate)

Examples with their reported polyreactivity (PSR sort gate) follow.
{"columns": ["input_sequence", "result"],
 "data": [
  ["QVQLQESGGGLMQAGGSQRLSCAASGSISYYSDMCWYRQAPGKEREFVAGIGYGTTTNYADSVKGRFTTSRDNAKNTVYLQMISMKPEDTAVYYCAAYQGNGYEFYYWGQGTQVTVRS", "low polyreactivity"],
  ["QVQLVESGGGLVQAGGSLRLSCAASGSTFGENAMGWYRQAPGKERELVAAINYSGGSTYYADSVKGRFTISRDNAKNTVYLQMNRLKPEDTAVYYCAAVNLPQLYYDYDYWGQGTQVTVSS", "low polyreactivity"],
  ["QVQLVESGGGLVQAGGSLRLSCAASGSIFYVYAMGGYRQAPGKERELVAAITSGSSTNYADSVKGRFTISRDNAKNTVYLQMNSLKPEDTAVYYCAASFRDDFPQRLDYWGQGTQVTVSS", "low polyreactivity"],
  ["QVPLVESGGGLVQAGGSLRLSCAASGGIFRLYAMGWYRLAPGKEREVVASLSGDGDSTYYADSVQGRFTISRDNAKNTVYLQMNSLKPEDTAVYYCARQPYYFLSRPPYFRKYYYWGQGTQVTVSS", "high polyreactivity"],
  ["QVQLVESGGGLVQAGGSLRLSCAASGSTSYRYAMGWYRQAPGKQRELVAGITRSGGSTYYADSVKGRFTMSRDNAKNSVYLQMNSLKPEDTAVYYCAAYYSRQYVGYGYWGQGTQVTVSS", "high polyreactivity"]
]}

[ask] Given `QVQLVESGGGLVQAGGSLRLSCAASGFTFYKYALGWYRQAPGKERELVAAISNSGGSTYYADSVKGRFTISRDNAKNTVYLQMNCLKPEDTAVYYCAKLSDSITLYGYWGQGTQVNVSS` , state its recorded polyreactivity (PSR sort gate).
[reply] high polyreactivity

[ask] // same read-out, input: `QVQLVESGGGLVQAGGSLRLSCAASGGTFFKNAMGWYRQAPGKERELVAVIDTISTSTYYADSVKGRFTISRDNAKNTVYLQMNSLKPEDTAVYYCAAEYGPGLTEGLYYYWGQGTQVTVSS`
[reply] high polyreactivity

----------
- measurement_notes: yeast display, Sf9 membrane polyspecificity reagent, FACS + sequencing; frameworks hold sequencing errors
measured_endpoint: polyreactivity (PSR sort gate)

Examples with their reported polyreactivity (PSR sort gate) follow.
{"columns": ["input_sequence", "polyreactivity (PSR sort gate)"],
 "data": [
  ["QVQLVESVGGLGQAGGSLRLSCAASGYIFRPDAMGWYRQEPGKERELVAVISSGGSTYYADSVKGRFTISRDNAKNTVYLQMNSLKPEDTAVYYCNRTLPSIGGTTYEYWRQGTQVTVSS", "low polyreactivity"],
  ["QVQLVESGGGLVQAGGSLRLSCAASVSTVSYNAMGWYRQAPGKERELVAAISGSGGTTYYADSVKGRFTISRDNAKNTVYLQMNSLKPEDTAVYYCAARPFRSWRYDYWGQGTQVTVSS", "low polyreactivity"],
  ["QVQLVESGGGLVQAGGSLRLICAASGSIFDYYDMGWYRQAPGKERELVAANNWSGGITYYADSVKGRFTISRDYAKNTVYLQMNSLKPEDTEVYFCAADWYQWVYSSSITSFDYWGQGTQVTVSS", "low polyreactivity"],
  ["QVQLVESGGGLVQAGGSLRLSCAASGSIFGYYAMGWYRPAPGKERELVAAISGSAGTTYYADSVKGRFTISRDNAKNTVYLQMNSLKPEDTAVYYCAKYYPYIQADYGYDYWGQGTQVTVSS", "low polyreactivity"],
  ["QVQLVESGGGLVQAGGSLRLSCAASGLTFYKNAMGWYRQAPGKERELVAVISSSGGSTYYADSVKGRFTISRDNAKNTVYLQMYSLKPEDSAVYYFARDLYTEYRWGRLTYDYRGQGTQVTVSS", "low polyreactivity"]
]}

[ask] Given `QVQLVESGGGLVQAGGSLRLSCAASGSIFYSYAMGWYRQAPGKERELVARITKRGGRTYYADSVKGRFTISRDNAKNTVYLQMNSLKPEDTAVYYCAATTGHRTYRYYYWGQGTQVTVSS` , state its recorded polyreactivity (PSR sort gate).
[reply] high polyreactivity

[ask] // same read-out, input: `QVQLVESGGGLLQAGGSLRLSCAASGRTFRAYTMGWYRQAPGKERELVAAISTPGGSTYYADSVKGRFTISRDNAKNTVYLQMNSLKPEDSAVYYCAAGTFYYWLSYDYWGQGTQVTVSS`
[reply] low polyreactivity

[ask] // same read-out, input: `QVQLVESGGGLVQAGGSLRLSCAASGNIFYVYAMGWYRQAPGKEREFVAAIRGSGGSTYYADSVKGRFTISRDNAKNTVYLQMNSLIQEDTAVYYCDAVAWEGSGSEMYSWGQGTQVTVSS`
[reply] low polyreactivity

[ask] // same read-out, input: `QFQLVESGGGLVQAGGSLRLSCAATGSIIGANAMGWYRQAPGKERELVAAISTRGGRTYYADSVKGRFTISRDNAKNTVYLQMNSLKPEDTAVYYCATSGGRPYKYEYWGQGTQVTVSS`
[reply] high polyreactivity

[ask] // same read-out, input: `QDQLVESVGGLVQAGGSLRLSCAASGSIFIGYAMGWYRQAPGKERELVAAITSGGSTYADSVKGRFTISRDNAKNTVYLQMNSLKPEDTAVYYCAARFFLVTLDYCGQGTQVTVSS`
[reply] low polyreactivity

[ask] // same read-out, input: `QVQLVESGGGLVQAGGSLRLSCAASRSIFQSYDMGWYRQAPGKERELVAAISWSGSTTYYADSVKGRFTISRDNAKNTVYLQMNSLKPEDTAVYYCAFDSNTPDWWAVIYGYWGQGTQVTVSS`
[reply] low polyreactivity
